- ASSAY_TARGET: Mas-related G-protein coupled receptor member X1 (Homo sapiens)
- ASSAY: activators of human MrgX1 calcium signaling – HEK293 cells, Fluo-4 calcium flux, confirmation (AID 602412)
- MEASUREMENT_CONTEXT: MrgX1-HEK293, Fluo-4 calcium fluorescence, FDSS, at 10 µM
The other results are listed elsewhere or left out. Activity calls are given as the source filed them.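 The calls were made as follows: active = calcium signal rise, corrected for plate position, at least 3 library SD high, with starting brightness within 5 such deviations; inactive = the rest.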
Write down one outcome, taken from active, inactive

Examples with answers:
1) O=C(CC(O)(C(F)(F)F)C(F)(F)F)Nc1ccc(Cl)c(Cl)c1 = active
2) O=C(Nc1ccccc1)c1nnsc1S(=O)(=O)c1ccc(Cl)cc1 = active
3) N=C(N)SCc1cccc2ccccc12 = active

Task: Tell me the assay call for OCc1ccc(OCCCOc2cccc3cccnc23)cc1 please.
Result: inactive

Task: For this compound, state the assay outcome: COc1ccc2c(c1)OC(O)(C(F)(F)C(F)F)CC2=O (stereo unspecified)
Result: active

Task: Dear colleague, could you share the recorded outcome for COC(=O)c1ccc(C2C3=C(Nc4nnnn42)c2ccccc2OC3)cc1 (stereo unspecified) when you have a moment?
Result: inactive
